Recorded Rf values for a group of molecules are listed next.
- ASSAY_TEXT: Retardation factor in 2-butanol-water at 1:1 ratio by TLC
- Format: physicochemical
- CONDITION_PARAMETERS: buffer
Where a SMILES comes first, the peptide text is derived from it. [ ]: non-standard residue; d: D form. pGlu = O=C1CC[C@@H](C(=O)O)N1
Answer as a number with no unit attached.

These recorded examples may help you get a feel for the data.
MOLECULE	Rf
CC(=O)NCCCC[C@@H](NC(=O)[C@H](Cc1ccc(O)cc1)NC(=O)[C@H](CO)NC(=O)[C@H](Cc1c[nH]c2ccccc12)NC(=O)[C@H](Cc1cnc[nH]1)NC(=O)[C@@H]1CCC(=O)N1)C(=O)N[C@@H](CC(C)C)C(=O)N[C@@H](CCCNC(=N)N)C(=O)N1CCC[C@H]1C(=O)NCC(N)=O	0.34
CC(C)C[C@H](NC(=O)[C@@H](CCCCN)NC(=O)[C@H](Cc1ccc(O)cc1)NC(=O)[C@H](CO)NC(=O)[C@H](Cc1c[nH]c2ccccc12)NC(=O)[C@@H]1CCC(=O)N1)C(=O)N[C@@H](CCCNC(=N)N)C(=O)N1CCC[C@H]1C(=O)NCC(N)=O ([pGlu]WSY[dK]LRPG-NH2)	0.25
CCCCCCCCCCCCNCCCC[C@@H](NC(=O)[C@H](Cc1ccc(O)cc1)NC(=O)[C@H](CO)NC(=O)[C@H](Cc1c[nH]c2ccccc12)NC(=O)[C@@H]1CCC(=O)N1)C(=O)N[C@@H](CC(C)C)C(=O)N[C@@H](CCCNC(=N)N)C(=O)N1CCC[C@H]1C(=O)NCC(N)=O	0.44

Turning to the following molecule.
Q: Field request: Rf | item: CCCCCCCCCCCCNCCCC[C@@H](NC(=O)[C@H](Cc1ccc(O)cc1)NC(=O)[C@H](CO)NC(=O)[C@H](Cc1c[nH]c2ccccc12)NC(=O)[C@H](Cc1cnc[nH]1)NC(=O)[C@@H]1CCC(=O)N1)C(=O)N[C@@H](CC(C)C)C(=O)N[C@@H](CCCNC(=N)N)C(=O)N1CCC[C@H]1C(=O)NCC
A: 0.39
